- assayInfo: S. cerevisiae growth inhibition in permissive medium (OD615), pilot counter-assay for S. cerevisiae lifespan shortening project, permissive growth control (AID 705)
- settings: OD615, 24 h, at 10 µM, stronger effect = higher value
growth inhibition values by entry
Report the figure in % without appending any unit label.

Consider the reported growth inhibition for these molecules:
molecule	growth inhibition (%)
O=C(CCc1nc2ccccc2[nH]1)Nc1ccc2c(c1)OCCO2	-17.1
N=C1C(c2nc3ccccc3c(=O)[nH]2)=C(O)CN1CCc1ccccc1	2.17
Cc1cc(/C=N/n2cnnc2)c(C)n1-c1ccc(C(=O)O)cc1	5.52

Endpoint output: growth inhibition of `Cc1cc(N2CCN(C3CCCCC3)CC2)n2nc(C)nc2n1` . Value?
5.17

Requested field: growth inhibition. Item: `CN(C)c1cc(NC(=O)CN2CCOCC2)c2ccccc2n1`
-12.2

Dear colleague, I am looking for the recorded growth inhibition of the following molecule: CCn1cc(SCC(=O)NCC2CCCO2)c2ccccc21 (stereo unspecified)
4.53

Entry `O=C1N=C(N2CCOCC2)SC1=C1CCCCC1` has what growth inhibition?
-8.5

Which growth inhibition value belongs to `CCOCCn1c(SCC(=O)OCc2ccccc2)nc2c1c(=O)[nH]c(=O)n2C` ?
-13.7

Look up growth inhibition for this molecule: `CCc1nnc(NC(=O)CSc2nnc(Cc3cccn3C)n2CCOC)s1`
-4.61

# lookup: growth inhibition of COc1cc2c(cc1OC)C(C)N(C(=O)Cn1ncc3c1-c1ccccc1OC3)CC2 (stereo unspecified)
-9.09

Data request, read-out growth inhibition, for `O=c1c2ccccc2nc(SCc2nc(-c3ccccc3)no2)n1-c1ccc(F)cc1`
2.33

* * *

- assayInfo: doxorubicin toxicity protection in MRP-1 cells – H69AR cells, CellTiter-Glo, duplicate, MRP-1 activator project, pilot screen (AID 807);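 further: compound pretreatment 18-22 h then 72 h combined with doxorubicin; 0% = doxorubicin alone and 100% = vehicle without doxorubicin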
- settings: H69AR viability with doxorubicin, CellTiter-Glo luminescence; at 10 µM; stronger effect = higher value
Calls of active or inactive are those of the source.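 Rule for the calls: active = viability increase at or above a cutoff of the median across tested compounds plus 3 SD (cut at about 8.5% in these data, passing the limit was not always enough); inconclusive = some gains above the cutoff, reason not given; inactive = the rest.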
propertyMeasured: viability increase

Here are 5 compounds together with their reported answers.
compound	viability increase
CCOC(=O)C1CCCN(C(=O)c2cn(C)c(=O)c3cc(OC)c(OC)cc23)C1 (stereo unspecified)	-3.62% (inactive)
COc1ccc(-n2nnc3c(=O)n(CC(=O)N4CCC(C)CC4)cnc32)cc1	-0.52% (inactive)
CCN(CC)Cc1c(C(=O)OC)nnn1-c1nonc1N	-2.07% (inactive)
O=C(C1COc2ccccc2O1)N1CCCC1 (stereo unspecified)	-0.88% (inactive)
O=C(NCCSc1c[nH]c2ccccc12)c1ccc(Br)o1	-3.97% (inactive)

Could you share which viability increase value was measured for `COCCNC(=O)Cn1ncc2ccsc2c1=O` ?
0.35% (inactive)

Quick one: viability increase for `O=C(Cn1nc(Cc2cccnc2)c2ccccc2c1=O)Nc1ccc2c(c1)OCO2` ?
2.16% (inactive)

Any idea what viability increase was measured for `O=C(Nc1ccc(Cl)c(Cl)c1)c1ccncc1` ?
-1.27% (inactive)

Which viability increase value is on record for CC1CCCN(C(=O)C(Cc2ccccc2)n2cccc2)C1 (stereo unspecified) ?
-3.01% (inactive)

So what's the measured viability increase for this one? `CCOCCCNC(=O)CN1CCN(Cc2ccccc2C)C1=O`
0.02% (inactive)

* * *

- measuredOn: Receptor tyrosine-protein kinase erbB-2 (Homo sapiens) (UniProt P04626)
- Sequence (P04626 whole entry, looked up): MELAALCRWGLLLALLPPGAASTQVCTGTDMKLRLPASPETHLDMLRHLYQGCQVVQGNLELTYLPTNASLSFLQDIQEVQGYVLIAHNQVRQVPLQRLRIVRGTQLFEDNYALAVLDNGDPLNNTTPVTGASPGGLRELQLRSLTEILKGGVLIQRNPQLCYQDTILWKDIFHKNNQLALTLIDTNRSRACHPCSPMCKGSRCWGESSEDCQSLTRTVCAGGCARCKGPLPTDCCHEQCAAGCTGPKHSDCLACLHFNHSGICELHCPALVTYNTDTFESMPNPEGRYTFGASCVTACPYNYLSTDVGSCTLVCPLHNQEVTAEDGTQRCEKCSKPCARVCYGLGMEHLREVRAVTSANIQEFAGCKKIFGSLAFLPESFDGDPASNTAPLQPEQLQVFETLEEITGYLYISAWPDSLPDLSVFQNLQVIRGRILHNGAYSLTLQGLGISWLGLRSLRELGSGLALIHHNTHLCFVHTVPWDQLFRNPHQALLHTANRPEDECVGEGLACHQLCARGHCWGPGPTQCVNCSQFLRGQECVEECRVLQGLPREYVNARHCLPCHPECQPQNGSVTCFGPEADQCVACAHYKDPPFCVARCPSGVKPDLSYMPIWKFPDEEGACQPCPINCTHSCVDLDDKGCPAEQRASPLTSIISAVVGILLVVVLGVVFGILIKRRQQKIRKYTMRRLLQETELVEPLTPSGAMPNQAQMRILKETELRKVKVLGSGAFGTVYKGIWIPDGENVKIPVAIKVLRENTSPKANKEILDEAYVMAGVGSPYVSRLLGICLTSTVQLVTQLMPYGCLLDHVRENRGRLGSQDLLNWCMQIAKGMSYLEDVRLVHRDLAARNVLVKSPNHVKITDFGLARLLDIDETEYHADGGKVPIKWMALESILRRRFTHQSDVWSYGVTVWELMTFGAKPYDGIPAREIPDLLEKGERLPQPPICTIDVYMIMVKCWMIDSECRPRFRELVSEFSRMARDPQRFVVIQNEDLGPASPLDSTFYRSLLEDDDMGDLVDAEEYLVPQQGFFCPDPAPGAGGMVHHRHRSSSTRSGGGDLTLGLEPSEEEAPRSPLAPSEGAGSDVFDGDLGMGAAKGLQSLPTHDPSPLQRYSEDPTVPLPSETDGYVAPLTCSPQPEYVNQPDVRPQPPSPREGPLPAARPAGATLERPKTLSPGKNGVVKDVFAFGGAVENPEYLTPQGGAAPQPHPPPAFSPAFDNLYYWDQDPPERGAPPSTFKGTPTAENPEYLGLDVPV
- assayInfo: Her2 expression decrease, cell viability multiplex – SKBR3 breast tumor cells, AlphaScreen, ATP viability, primary screen (AID 461);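 further: lower value means less Her2 protein in the cells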
- settings: 18-24 h, at 10 µM, stronger effect = lower value
Listed next: entries and their corresponding Her2 level.
Quick note: give the figure in %, leave out the unit.

Solved entries (count: 10):
molecule	Her2 level [%]
C/C=C/COC(=O)c1[nH]c2c(c1C)C(=O)CC(c1ccco1)C2 (stereo not given)	62
CCCc1cc(C(=O)Nc2sc3c(c2C#N)CCC3)no1	77.5
CCCCSc1nc(CCC)cc(=O)[nH]1	118
CCn1c(C(=O)N2CCC(C(=O)N3CCN(c4ccccn4)CC3)CC2)cc2sccc21	108
COc1cc(NC(=O)C2CCCN2S(=O)(=O)c2cccc3cccnc23)cc(OC)c1OC (stereo not given)	81
N#CCCN(Cc1cccnc1)C(=O)Nc1ccc(Cl)c(Cl)c1	94
COc1ccc(C2CC(c3ccc(OC)cc3)n3nc(N)nc3N2)cc1 (stereo not given)	98
CC1=C(C(=O)Nc2ccccc2)C(c2ccccn2)n2nc(CCCO)nc2N1 (stereo not given)	105
CCOCCCNC(=O)C(c1ccc(C)cc1)N(Cc1ccc2c(c1)OCO2)C(=O)c1cnccn1 (stereo not given)	102
CCn1cc(C(=O)NCCC2=CCCCC2)c(=O)c2cc(S(=O)(=O)N(C)C)ccc21	98.5

Hi! What's the reported Her2 level for `CCOc1ccccc1C(=O)Nc1nnc(CC)s1` on Receptor tyrosine-protein kinase erbB-2 (Homo sapiens) (UniProt P04626)?
84

* * *

- assayInfo: viability of PTEN-null HCT116 cells – cell-based, HCT116 clonal line, CellTiter-Glo, pilot screen (AID 824);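 further: 0% = 20 µM Hyamine control and 100% = vehicle cell control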
- settings: HCT116 PTEN-deleted viability, 60 h, at 10 µM, stronger effect = lower value
Results filed as inconclusive are left out.
In this section, each of the compounds is paired with its reported viability.
Expressed in %, but write only the number.

Worked cases, viability given:
compound	propertyMeasured	unitName	experimentalResult
COc1ccc(CC(=O)NCc2nnc(SCC(=O)Nc3nccs3)n2-c2ccccc2)cc1	viability	%	96.7
NS(=O)(=O)c1ccc(CCNC2CC(=O)N(CCc3ccccc3)C2=O)cc1 (stereo unspecified)	viability	%	99.9
COCCOC(=O)C1=C(C)NC2=C(C(=O)CCC2)C1c1cc2c(cc1Br)OCO2 (stereo unspecified)	viability	%	102
Cc1oc(-c2ccc(Cl)cc2)nc1CS(=O)CC(=O)NCCN1CCCC1 (stereo unspecified)	viability	%	91.4
COc1ccc(C(=O)CN2C3=NCCCN3c3ccccc32)cc1OC	viability	%	64.7

# ---- query compound ----
So what's the measured viability for this one? `COc1ccc(OCc2nnc(SCC(=O)O)n2N)cc1`
94.8

* * *

- assayInfo: MRP1 drug-resistance reversers in H69AR cells – cell-based, doxorubicin co-treatment, pilot screen (AID 601)
- settings: H69AR cells, CellTiter-Glo, 72 h; compound alone cytotoxicity; at 10 µM
propertyMeasured: viability (%)
Lab book: enter the figure in %, no units written.

What value of viability has been reported for the following compound? `COc1cccc(NC(=O)c2ccco2)c1`
94.9

Requested read-out: viability. Entry: `CCN(CC)CCCNC(=O)c1cn(C)c2ccc(S(=O)(=O)N(C)C)cc2c1=O`
99.4

Query: viability; subject: `Cn1ccnc1SCC(=O)Nc1ccc2ccccc2c1`
105

Fill in: viability of `COC(=O)c1cc(OC)c(OC)cc1NC(=O)c1ccc(Br)o1` is ___
87.6

Any idea what viability was measured for `O=C(NCCN1CCCCCC1)c1ccc(CS(=O)(=O)c2ccc(Br)cc2)o1` ?
91

Returns the measured viability for the input compound. Input: `Cc1ccc(-n2c3c(cc(C(=O)O)c2=O)C(=O)CC(C)(C)C3)cc1`
87.8

Given the compound `CCOCCCNC(=O)Cn1cc2c(n1)CCCCC2` , what is its reported viability?
103

I would be grateful if you could share the reported viability for `COc1ccccc1N(CC(=O)Nc1cccnc1)S(C)(=O)=O` .
89.3

Give the measured viability of `CN1CCN(C(=O)C2CCN(S(=O)(=O)c3ccc4c(c3)oc(=O)n4C)CC2)CC1` .
107

Fill blank: measured viability of the compound CCOC(=O)C(C)Sc1nnc(Cc2cc(=O)[nH]c(=O)[nH]2)n1-c1ccc(Cl)cc1 (stereo unspecified) is ____.
103

* * *

We begin with a simple list: items and their reported viability.
- assayInfo: viability of HCT116 without oncogenic beta-catenin – human colon tumor cells, pilot screen (AID 823);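 further: 0% = wells killed by 20 µM Hyamine and 100% = untreated DMSO cell wells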
- settings: HCT116 beta-catenin knockout viability, CellTiter-Glo, 60 h; at 10 µM; stronger effect = lower value
Records with an inconclusive call do not appear.
Provide only the numeric value, understood in %.

Solved cases (6 shown):
compound	unitName	viability
CN(CC(=O)N1CCc2ccccc2C1)S(=O)(=O)c1ccc2c(c1)c(=O)n(C)c(=O)n2C	%	98.4
O=C(c1ccc(NS(=O)(=O)c2cccs2)cc1)N1CCCCC1	%	93.8
Cc1cccc(Cn2c(SCC(=O)Nc3ccccc3)nc3c2c(=O)[nH]c(=O)n3C)c1	%	91
CC1CCN(C(=O)CSCC(=O)Nc2nc(-c3cccs3)cs2)CC1	%	100
Cn1c(=O)c2c(nc3sccn32)n(C)c1=O	%	101
CN1CCN(CC(=O)N2c3ccccc3C(C)(c3ccccc3)CC2(C)C)CC1 (stereo not drawn)	%	49.1

Fill in the blank: the reported viability of `CCOC(=O)c1c(C)n(OCc2ccccc2)c2ccc3c(no[n+]3[O-])c12` is ____.
62.8

Consider the compound shown here: `Cc1nnc(SCC(=O)Nc2sc3c(c2C#N)CCCC3)[nH]c1=O` What is its recorded viability?
103

Recorded viability of CCOC(=O)C1CCCN(C(=O)Cn2nc(CC)n3c(cc4sccc43)c2=O)C1 (stereo not drawn) , please.
105
